// Papp A→B at […], 20 µM lookup, one value per entry
# assayMethodText: Apparent permeability from apical to basolateral side in human Caco2 cells at 20 uM incubated for […] by LC-MS/MS analysis
# Type: ADME, cell-based
# conditionsUsed: Caco-2
quantity: Papp A→B at […], 20 µM (×10⁻⁶ cm/s)

[[record]]
chemicalstring = "C[N+](C)(C)CCNC(=O)CCCCCOc1ccc2nc(C3(NC(=O)C[C@H](N)Cc4cc(F)c(F)cc4F)CCS(=O)(=O)CC3)sc2c1.O=C(O)C(F)(F)F.O=C([O-])C(F)(F)F"
quantity = "Papp A→B at […], 20 µM"
readingunit = "×10⁻⁶ cm/s"
readoutvalue = 0.02

[[record]]
chemicalstring = "C[N+](C)(C)CCNC(=O)COc1ccc2nc(C3(NC(=O)C[C@H](N)Cc4cc(F)c(F)cc4F)CCS(=O)(=O)CC3)sc2c1.O=C(O)C(F)(F)F.O=C([O-])C(F)(F)F"
quantity = "Papp A→B at […], 20 µM"
readingunit = "×10⁻⁶ cm/s"
readoutvalue = 0.02

[[record]]
chemicalstring = "N[C@@H](CC(=O)NC1(c2nc3ccc(OCC(=O)NC[C@H](O)[C@@H](O)[C@@H](O)[C@H](O)CO)cc3s2)CCS(=O)(=O)CC1)Cc1cc(F)c(F)cc1F.O=C(O)C(F)(F)F"
quantity = "Papp A→B at […], 20 µM"
readingunit = "×10⁻⁶ cm/s"
readoutvalue = 0.02


----------
# assayMethodText: Efflux ratio in human Caco2 cells at 20 uM incubated for […] by LC-MS/MS analysis
# Type: ADME, cell-based
# conditionsUsed: Caco-2
quantity: efflux ratio at […], 20 µM

[[record]]
chemicalstring = "N[C@@H](CC(=O)NC1(c2nc3ccc(OCCCCCC(=O)NC[C@H](O)[C@@H](O)[C@@H](O)[C@H](O)CO)cc3s2)CCS(=O)(=O)CC1)Cc1cc(F)c(F)cc1F.O=C(O)C(F)(F)F"
readoutvalue = 13

[[record]]
chemicalstring = "N[C@@H](CC(=O)NC1(c2nc3ccc(OCC(=O)NCCS(=O)(=O)O)cc3s2)CCS(=O)(=O)CC1)Cc1cc(F)c(F)cc1F.O=C(O)C(F)(F)F"
readoutvalue = 0.3

[[record]]
chemicalstring = "C[N+](C)(C)CCNC(=O)COc1ccc2nc(C3(NC(=O)C[C@H](N)Cc4cc(F)c(F)cc4F)CCS(=O)(=O)CC3)sc2c1.O=C(O)C(F)(F)F.O=C([O-])C(F)(F)F"
readoutvalue = 0.2

[[record]]
chemicalstring = "C[N+](C)(C)CCNC(=O)CCCCCOc1ccc2nc(C3(NC(=O)C[C@H](N)Cc4cc(F)c(F)cc4F)CCS(=O)(=O)CC3)sc2c1.O=C(O)C(F)(F)F.O=C([O-])C(F)(F)F"
readoutvalue = 6

[[record]]
chemicalstring = "N[C@@H](CC(=O)NC1(c2nc3ccc(OCCCCCC(=O)NCCS(=O)(=O)O)cc3s2)CCS(=O)(=O)CC1)Cc1cc(F)c(F)cc1F.O=C(O)C(F)(F)F"
readoutvalue = 295

[[record]]
chemicalstring = "N[C@@H](CC(=O)NC1(c2nc3ccc(OCC(=O)NC[C@H](O)[C@@H](O)[C@@H](O)[C@H](O)CO)cc3s2)CCS(=O)(=O)CC1)Cc1cc(F)c(F)cc1F.O=C(O)C(F)(F)F"
readoutvalue = 0.05

